# test.system: GST-Hu-p50 (Homo sapiens, UniProt P19838 7-356)
# Sequence (P19838 7-356): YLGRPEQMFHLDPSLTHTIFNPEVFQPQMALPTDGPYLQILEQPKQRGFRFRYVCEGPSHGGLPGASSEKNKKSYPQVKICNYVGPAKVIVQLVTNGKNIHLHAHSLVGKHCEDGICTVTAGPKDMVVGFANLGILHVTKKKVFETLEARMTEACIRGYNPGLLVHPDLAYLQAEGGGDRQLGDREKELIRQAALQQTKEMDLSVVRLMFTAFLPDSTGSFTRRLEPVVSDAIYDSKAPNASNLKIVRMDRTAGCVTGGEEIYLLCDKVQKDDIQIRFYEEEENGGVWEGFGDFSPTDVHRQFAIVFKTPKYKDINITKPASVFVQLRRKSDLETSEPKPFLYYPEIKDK
# assay.text: protein-binding microarray (PBM); PBM: ~300 nM protein, 6 mM HEPES pH 7.8, 80 mM KCl, 0.5 mM EDTA, 0.5 mM EGTA, 6% glycerol, 35 ng/ul poly-dIdC, 1% milk, 1 h, room temperature; Ap Aiptasia and Nv Nematostella (sea anemones) / Co Capsaspora / Aq Amphimedon (sponge) / Dm Drosophila / Hu human; RHD is the Rel homology domain; high values mean tight binding
# stated.conditions: dsDNA, one strand shown
// classify(record): look up binding signal in ranges low: < 4 z-score; medium: ≥ 4 z-score and < 6 z-score; high: ≥ 6 z-score

State the class of the sequence shown: CCGATTAACATCAGGGGGTGGTATGATGTTAATCGGGTCTTGATTCGCTTGACGCTGCTG low

State the class of the sequence shown: CCGATTAACATCAATTGGGAAAATGATGTTAATCGGGTCTTGATTCGCTTGACGCTGCTG low

State the class of the sequence shown: CCGATTAACATCAGCAACCCCCCTGATGTTAATCGGGTCTTGATTCGCTTGACGCTGCTG medium

State the class of the sequence shown: CCGATTAACATCAAAAATACCCCTGATGTTAATCGGGTCTTGATTCGCTTGACGCTGCTG high

State the class of the sequence shown: CCGATTAACATCAGGGTTCCCCATGATGTTAATCGGGTCTTGATTCGCTTGACGCTGCTG low

State the class of the sequence shown: CCGATTAACATCAAGTTTCCCCATGATGTTAATCGGGTCTTGATTCGCTTGACGCTGCTG medium

State the class of the sequence shown: CCGATTAACATCAGAAAAGTCCCTGATGTTAATCGGGTCTTGATTCGCTTGACGCTGCTG high

State the class of the sequence shown: CCGATTAACATCACATTTCCCCCTGATGTTAATCGGGTCTTGATTCGCTTGACGCTGCTG high

State the class of the sequence shown: CCGATTAACATCAAGGGGAATTCTGATGTTAATCGGGTCTTGATTCGCTTGACGCTGCTG high

State the class of the sequence shown: CCGATTAACATCAATGTGGGAAATGATGTTAATCGGGTCTTGATTCGCTTGACGCTGCTG low

State the class of the sequence shown: CCGATTAACATCAGCACGGGAAATGATGTTAATCGGGTCTTGATTCGCTTGACGCTGCTG low

State the class of the sequence shown: CCGATTAACATCAAGGGGGTTTATGATGTTAATCGGGTCTTGATTCGCTTGACGCTGCTG high

State the class of the sequence shown: CCGATTAACATCAGGGATTTTTATGATGTTAATCGGGTCTTGATTCGCTTGACGCTGCTG medium

State the class of the sequence shown: CCGATTAACATCAAATTCCCTTATGATGTTAATCGGGTCTTGATTCGCTTGACGCTGCTG medium
